Biological target: hKv1.5 (Homo sapiens, UniProt P22460)
Sequence (P22460 whole entry): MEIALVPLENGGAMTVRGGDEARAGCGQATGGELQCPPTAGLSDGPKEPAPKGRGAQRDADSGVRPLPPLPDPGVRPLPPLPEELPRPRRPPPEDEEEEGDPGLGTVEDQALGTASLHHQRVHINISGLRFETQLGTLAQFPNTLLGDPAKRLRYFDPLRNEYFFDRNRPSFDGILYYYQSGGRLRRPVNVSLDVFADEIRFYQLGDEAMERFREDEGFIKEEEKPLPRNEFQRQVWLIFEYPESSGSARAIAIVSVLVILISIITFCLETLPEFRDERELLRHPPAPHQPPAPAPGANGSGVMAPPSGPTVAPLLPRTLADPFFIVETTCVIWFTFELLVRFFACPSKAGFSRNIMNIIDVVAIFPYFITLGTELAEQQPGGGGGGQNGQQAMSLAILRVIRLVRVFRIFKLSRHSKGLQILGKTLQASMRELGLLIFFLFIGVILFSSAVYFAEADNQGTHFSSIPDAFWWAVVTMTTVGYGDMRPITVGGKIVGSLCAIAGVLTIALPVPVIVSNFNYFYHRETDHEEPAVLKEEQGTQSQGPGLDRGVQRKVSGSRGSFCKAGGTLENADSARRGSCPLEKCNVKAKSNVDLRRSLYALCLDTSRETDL
Experiment: Kv1.5 Autopatch Electrophysiology (whole cell patch-clamp)
Type: cell-based
Conditions: compound at 1µM, room temperature (22-24°C), held at -80mV, step to 0mV for 1000ms, total charge measured
Quick list: inhibition at 1 µM per entry.

These recorded examples may help you get a feel for the data.
OCC(CO)c1nc(NCc2ccccn2)c2c(-c3ccccc3)csc2n1 [Example 275]; 93%
COc1ccc(-c2csc3ncnc(NCc4ccccn4)c23)cc1 [Example 138]; 92.6%
Nc1nc(NCc2ccccn2)c2c(-c3ccc(F)cc3)csc2n1 [Example 205]; 97.5%
FC(F)(F)c1ccc(-c2csc3ncnc(NCc4ccccn4)c23)cc1 [Example 313]; 98.3%

Give inhibition at 1 µM (hKv1.5 (Homo sapiens, UniProt P22460)) of the following compound: CN1CCN(c2nc(NCc3ccccn3)c3c(-c4ccccc4)csc3n2)CC1 [Example 215] 82%
